Target: UniProt:Q5VWK5
Sequence (Q5VWK5 whole entry): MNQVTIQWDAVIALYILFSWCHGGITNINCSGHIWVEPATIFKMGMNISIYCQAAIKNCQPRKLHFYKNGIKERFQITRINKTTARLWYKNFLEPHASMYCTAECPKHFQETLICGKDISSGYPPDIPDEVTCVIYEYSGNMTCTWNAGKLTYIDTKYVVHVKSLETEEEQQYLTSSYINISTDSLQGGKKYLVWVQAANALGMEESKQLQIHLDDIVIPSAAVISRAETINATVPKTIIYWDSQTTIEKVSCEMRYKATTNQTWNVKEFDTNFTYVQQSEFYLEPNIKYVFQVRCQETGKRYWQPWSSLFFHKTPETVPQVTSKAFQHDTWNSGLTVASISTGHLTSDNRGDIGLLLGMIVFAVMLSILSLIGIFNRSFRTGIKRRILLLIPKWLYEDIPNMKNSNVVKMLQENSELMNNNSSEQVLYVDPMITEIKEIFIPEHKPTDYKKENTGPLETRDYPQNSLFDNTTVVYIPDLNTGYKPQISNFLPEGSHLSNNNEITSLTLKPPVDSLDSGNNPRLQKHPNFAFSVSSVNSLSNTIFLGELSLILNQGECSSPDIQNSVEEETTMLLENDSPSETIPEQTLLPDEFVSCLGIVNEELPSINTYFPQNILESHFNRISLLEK
Test: Inhibition of interleukin-23 binding to human interleukin-23 receptor incubated for 2 hrs by competitive binding ELISA
pIC50: −log10 of the molar value. Where a SMILES comes first, the peptide text is derived from it.
Give pIC50 for every item shown.

CC(=O)N[C@@H](CS)C(=O)N[C@@H](CCC(N)=O)C(=O)N[C@H](C(=O)N[C@@H](Cc1c[nH]c2ccccc12)C(=O)N[C@@H](CCC(N)=O)C(=O)N[C@@H](CS)C(=O)N[C@@H](Cc1ccc(O)cc1)C(=O)N[C@@H](Cc1c[nH]c2ccccc12)C(=O)N[C@@H](CCC(C)C)C(=O)N[C@@H](CCC(=O)O)C(=O)N[C@@H](CC(N)=O)C(=O)NCC(=O)NCC(N)=O)[C@@H](C)O
6.44 to 7.21
CC(=O)N[C@H](CCCCN)C(=O)N[C@@H](CS)C(=O)N[C@@H](C)C(=O)N[C@@H](CC(=O)O)C(=O)N[C@@H](Cc1c[nH]c2ccccc12)C(=O)N[C@H](C(=O)N[C@@H](CS)C(=O)N[C@@H](Cc1ccc(O)cc1)C(=O)N[C@@H](Cc1c[nH]c2ccccc12)C(=O)N[C@@H](Cc1cnc[nH]1)C(=O)N[C@H](C(=O)N[C@@H](Cc1ccccc1)C(=O)NCC(=O)O)[C@@H](C)O)C(C)C
< 6.00
N=C(N)NCCC[C@H](NC(=O)[C@H](Cc1c[nH]c2ccccc12)NC(=O)[C@H](Cc1ccc(O)cc1)NC(=O)[C@@H]1CSCCC(=O)N[C@@H](CCC(N)=O)C(=O)N[C@@H](CC(=O)O)C(=O)N[C@@H](Cc2c[nH]c3ccccc23)C(=O)N[C@@H](CCC(N)=O)C(=O)N1)C(=O)N[C@@H](CCC(=O)O)C(=O)N[C@@H](CC(N)=O)C(=O)NCC(=O)NCCOCC(=O)N[C@H](CCCCN)C(N)=O
4.52
COc1ccc(C[C@H](NC(=O)[C@H]2NC(=O)[C@H](CCC(N)=O)NC(=O)[C@H](Cc3c[nH]c4ccccc34)NC(=O)[C@H]([C@@H](C)O)NC(=O)[C@H](CCC(N)=O)NC(=O)[C@@H](NC(C)=O)CCSC2(C)C)C(=O)N[C@@H](Cc2ccc3ccccc3c2)C(=O)N[C@@](C)(CCCCN)C(=O)N[C@@H](CCC(=O)O)C(=O)N[C@@H](CC(N)=O)C(=O)NCC(N)=O)cc1
6.00 to 7.00

Fill in pIC50 for each of the 7 compounds listed.
1. CC(=O)NCCCC[C@H](NC(=O)C(C)(C)NC(=O)[C@H](Cc1ccc2ccccc2c1)NC(=O)[C@H](Cc1ccc(OCCN)cc1)NC(=O)[C@@H]1CSCC[C@H](NC(C)=O)C(=O)N[C@@H](CCC(N)=O)C(=O)N[C@@H]([C@@H](C)O)C(=O)N[C@@H](Cc2c[nH]c3ccccc23)C(=O)N[C@@H](CCC(N)=O)C(=O)N1)C(=O)N[C@@H](CCC(N)=O)C(=O)NCC(N)=O
2. CC(=O)N[C@@H](CS)C(=O)N[C@@H](CCC(N)=O)C(=O)N[C@H](C(=O)N[C@@H](Cc1c[nH]c2ccccc12)C(=O)N[C@@H](CCC(N)=O)C(=O)N[C@@H](CS)C(=O)N[C@@H](Cc1ccc(O)cc1)C(=O)N[C@@H](Cc1c[nH]c2ccccc12)C(=O)N[C@@H](CCC(C)C)C(=O)N[C@@H](CCC(=O)O)C(=O)N[C@@H](CC(N)=O)C(=O)NCC(=O)N1CCC[C@H]1C(N)=O)[C@@H](C)O
3. CC(=O)N[C@@H](C)C(=O)N[C@@H](CS)C(=O)N[C@@H](CC(=O)O)C(=O)N[C@@H](Cc1c[nH]c2ccccc12)C(=O)N[C@H](C(=O)N[C@H](C(=O)N[C@@H](Cc1ccc(O)cc1)C(=O)N[C@@H](Cc1c[nH]c2ccccc12)C(=O)N[C@@H](CCCNC(=N)N)C(=O)N[C@@H](CCCCN)C(=O)N[C@@H](Cc1ccccc1)C(=O)NCC(=O)NCCOCC(=O)N[C@H](CCCCN)C(N)=O)C(C)(C)S)C(C)C
4. CC(=O)N[C@@H](CS)C(=O)N[C@@H](C)C(=O)N[C@@H](CC(=O)O)C(=O)N[C@@H](Cc1c[nH]c2ccccc12)C(=O)N[C@H](C(=O)N[C@H](C(=O)N[C@@H](Cc1ccc(O)cc1)C(=O)N[C@@H](Cc1c[nH]c2ccccc12)C(=O)N[C@@H](Cc1cnc[nH]1)C(=O)N[C@H](C(=O)N[C@@H](Cc1ccccc1)C(=O)NCC(=O)NCCOCC(=O)N[C@H](CCCCN)C(N)=O)[C@@H](C)O)C(C)(C)S)C(C)C
5. CC(=O)N[C@@H](CS)C(=O)N[C@@H](C)C(=O)N[C@@H](CC(=O)O)C(=O)N[C@@H](Cc1c[nH]c2ccccc12)C(=O)N[C@H](C(=O)N[C@@H](CS)C(=O)N[C@@H](Cc1ccc(O)cc1)C(=O)N[C@@H](Cc1cccc2ccccc12)C(=O)N(C)[C@@H](Cc1cnc[nH]1)C(=O)N[C@H](C)C(=O)N[C@@H](Cc1ccccc1)C(=O)NC(C)(C)C(N)=O)C(C)C
6. CC(=O)NC[C@H](NC(=O)[C@H](CCCN)NC(=O)[C@H](Cc1c[nH]c2ccccc12)NC(=O)[C@H](Cc1ccc(OCCN)cc1)NC(=O)[C@@H]1CSCC[C@H](NC(C)=O)C(=O)N[C@@H](CCC(N)=O)C(=O)N[C@@H]([C@@H](C)O)C(=O)N[C@@H](Cc2c[nH]c3ccccc23)C(=O)N[C@@H](CCC(N)=O)C(=O)N1)C(=O)N[C@@H](CC(N)=O)C(=O)NCC(N)=O
7. CC(=O)N[C@@H](CS)C(=O)N[C@@H](CCC(N)=O)C(=O)N[C@H](C(=O)N[C@@H](Cc1c[nH]c2ccccc12)C(=O)N[C@@H](CCC(N)=O)C(=O)N[C@@H](CS)C(N)=O)[C@@H](C)O (Ac-CQTWQC-NH2)

1. 7.60 to 8.00
2. 6.62 to 7.01
3. 5.00 to 6.00
4. < 4.52
5. < 6.00
6. 6.00 to 7.00
7. < 4.52
